// MIC lookup, one value per entry
System: M. tuberculosis MDR (resistant to isoniazid and rifampicin)
Test: microbe, parasite or virus in culture
Format: cell-based
Settings: Mycobacterium tuberculosis, 504 h, read-out: MIC MDR
Your answer should be a plain number; it is taken to be in µg/mL.

Examples with answers:
# entry.smiles, assayed.system, reported.value
rows = [
    ("C[C@]1(Cn2cc(COc3ccc(OC(F)(F)F)cc3)nn2)Cn2cc([N+](=O)[O-])nc2O1", "M. tuberculosis MDR (resistant to isoniazid and rifampicin)", 2),
    ("Cc1ccc(OCc2cn(C[C@@]3(C)Cn4cc([N+](=O)[O-])nc4O3)nn2)cc1", "M. tuberculosis MDR (resistant to isoniazid and rifampicin)", 2),
    ("C[C@]1(Cn2cc(COc3ccc(C(F)(F)F)cc3)nn2)Cn2cc([N+](=O)[O-])nc2O1", "M. tuberculosis MDR (resistant to isoniazid and rifampicin)", 4),
]

Turning to the following molecule.
Which MIC value is on record for C[C@]1(Cn2cc(COc3cccc(F)c3)nn2)Cn2cc([N+](=O)[O-])nc2O1 ?
2

---

System: M. tuberculosis MDR (resistant to isoniazid and rifampicin)
Assay: microbe, parasite or virus in culture
Assay type: cell-based
Settings: Mycobacterium tuberculosis, 504 h, read-out: MIC MDR
assay.readout: MIC (µg/mL)
Your answer should be a plain number; it is taken to be in µg/mL.

Examples with answers:
# entry.smiles, MIC [µg/mL]
rows = [
    ("C[C@]1(Cn2cc(COc3ccc(Br)cc3)nn2)Cn2cc([N+](=O)[O-])nc2O1", 0.12),
    ("C[C@]1(Cn2cc(-c3ccc(F)cc3)nn2)Cn2cc([N+](=O)[O-])nc2O1", 2),
    ("Cc1cc(-c2cn(C[C@@]3(C)Cn4cc([N+](=O)[O-])nc4O3)nn2)ccc1F", 4),
]

Turning to the following compound.
Which MIC value is on record for C[C@]1(Cn2cc(CN3CCOCC3)nn2)Cn2cc([N+](=O)[O-])nc2O1 ?
2

---

System: M. tuberculosis MDR (resistant to isoniazid and rifampicin)
Test: microbe, parasite or virus in culture
Format: cell-based
Details: Mycobacterium tuberculosis, 504 h, read-out: MIC MDR
// MIC lookup, one value per entry

Examples with answers:
# entry.smiles, MIC
data = [
    ("C[C@]1(Cn2cc(COc3ccccc3F)nn2)Cn2cc([N+](=O)[O-])nc2O1", "0.5 µg/mL"),
    ("Cc1ccc(OCCc2cn(C[C@@]3(C)Cn4cc([N+](=O)[O-])nc4O3)nn2)cc1", "0.25 µg/mL"),
    ("C[C@]1(Cn2cc(-c3ccc(F)cc3F)nn2)Cn2cc([N+](=O)[O-])nc2O1", "1 µg/mL"),
    ("CCc1ccc(OCc2cn(C[C@@]3(C)Cn4cc([N+](=O)[O-])nc4O3)nn2)cc1", "2 µg/mL"),
    ("Cc1ccccc1OCc1cn(C[C@@]2(C)Cn3cc([N+](=O)[O-])nc3O2)nn1", "1 µg/mL"),
    ("C[C@]1(Cn2cc(-c3ccc(Oc4ccccc4)cc3)nn2)Cn2cc([N+](=O)[O-])nc2O1", "1 µg/mL"),
    ("CC(C)c1ccc(OCc2cn(C[C@@]3(C)Cn4cc([N+](=O)[O-])nc4O3)nn2)cc1", "1 µg/mL"),
    ("C[C@]1(Cn2cc(COc3ccccn3)nn2)Cn2cc([N+](=O)[O-])nc2O1", "0.25 µg/mL"),
    ("CCCCCc1cn(C[C@@]2(C)Cn3cc([N+](=O)[O-])nc3O2)nn1", "2 µg/mL"),
    ("C[C@]1(Cn2cc(-c3ccc(C(F)(F)F)cc3)nn2)Cn2cc([N+](=O)[O-])nc2O1", "2 µg/mL"),
]

Which MIC value is on record for Cc1ccc(SCc2cn(C[C@@]3(C)Cn4cc([N+](=O)[O-])nc4O3)nn2)cc1 ?
0.5 µg/mL

For C[C@]1(Cn2cc(-c3ccc(OC(F)(F)F)cc3)nn2)Cn2cc([N+](=O)[O-])nc2O1 then?
2 µg/mL

For Cc1cccc(OCc2cn(C[C@@]3(C)Cn4cc([N+](=O)[O-])nc4O3)nn2)c1 then?
1 µg/mL

For C[C@]1(Cn2cc(COc3cccc(Cl)c3)nn2)Cn2cc([N+](=O)[O-])nc2O1 then?
2 µg/mL

The reported numbers originate from patent US9822126B1.
